- Test system: A-431
- assayProcedure: Cytotoxicity against human A431 cells incubated for 12 hrs followed by compound wash out measured 36 hrs by CYQUANT assay
- Format: functional, cell-based
parameterMeasured: IC50

These recorded examples may help you get a feel for the data.
- chemicalSmiles: "CC(C)(C)C(=O)Nc1nc(Nc2cccc(F)c2)c2c(n1)[nH]c1cccc(Cl)c12"
  IC50: "> 250 µM"
- chemicalSmiles: "CC(C)(C)C(=O)Nc1nc(Nc2ccc(Cl)cc2F)c2c(n1)[nH]c1cccc(Cl)c12"
  IC50: "> 250 µM"
- chemicalSmiles: "COc1cccc(Nc2nc(NC(=O)C(C)(C)C)nc3[nH]c4cccc(Cl)c4c23)c1"
  IC50: "> 250 µM"
- chemicalSmiles: "Nc1nc(Nc2ccccc2)c2c(n1)[nH]c1cccc(Cl)c12"
  IC50: "193 µM"

Query molecule follows.
Short answer for CC(C)c1ccc(Nc2nc(NC(=O)C(C)(C)C)nc3[nH]c4cccc(Cl)c4c23)cc1 : IC50 was > 250 µM
